# targetOfAssay: S1P1 (Homo sapiens, UniProt P21453)
# Sequence (P21453 whole entry, species assumed): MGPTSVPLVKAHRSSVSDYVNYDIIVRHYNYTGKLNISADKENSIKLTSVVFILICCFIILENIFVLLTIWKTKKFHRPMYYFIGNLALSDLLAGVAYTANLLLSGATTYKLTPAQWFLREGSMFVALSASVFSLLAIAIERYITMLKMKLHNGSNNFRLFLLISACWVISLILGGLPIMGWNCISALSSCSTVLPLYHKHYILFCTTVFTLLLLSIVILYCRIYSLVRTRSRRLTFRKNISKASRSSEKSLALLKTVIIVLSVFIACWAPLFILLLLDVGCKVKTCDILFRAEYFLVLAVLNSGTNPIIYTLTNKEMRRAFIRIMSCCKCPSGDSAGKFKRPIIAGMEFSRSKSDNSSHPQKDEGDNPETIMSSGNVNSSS
# protocolDescription: Receptor binding assay, [33P]sphingosine 1-phosphate competition, membranes of CHO cells expressing S1P1
# appliedConditions: 384 well plate; read-out: S1P1 Binding Ki [M] (384 well plate)
Structures can show the parent of a compound that is named as a salt.
readoutName: Ki (M)

>>> print(df.to_string())
                                    molecule  endpointvalue
 0  Cc1ccccc1-c1ccc(-c2nc(-c3ccc(CNCC(C)C(=O)O)cc3)no2)cc1C(F)(F)F (stereo not drawn) [Example 63]       1.15e-09
 1  CCC(C(=O)O)N(C)Cc1ccc(-c2noc(-c3ccc(-c4ccccc4C)c(C(F)(F)F)c3)n2)cc1F (stereo not drawn) [Example 1, hydrochloride salt]       2.81e-09
 2  CCCC(NCc1ccc(-c2noc(-c3ccc(-c4ccccc4C)c(C(F)(F)F)c3)n2)cc1)C(=O)O (stereo not drawn) [Example 62]       3.81e-09
 3  Cc1ccccc1-c1ccc(-c2nc(-c3ccc(CN(C)[C@@H](C)C(=O)O)c(F)c3)no2)cc1C(F)(F)F [Example 50, hydrochloride salt]       3.02e-09
 4  CCN(Cc1ccc(-c2noc(-c3ccc(-c4ccccc4C)c(C(F)(F)F)c3)n2)cc1)[C@H](C)C(=O)O [Example 90]       2.48e-09
 5  Cc1ccccc1-c1ccc(-c2nc(-c3cccc(CN(C)C(C)(C)C(=O)O)c3)no2)cc1C(F)(F)F [Example 83]       3.56e-09
 6  CCC(NCc1ccc(-c2noc(-c3ccc(-c4ccccc4C)c(C(F)(F)F)c3)n2)cc1)C(=O)O (stereo not drawn) [Example 58]       3.39e-09
 7  COCc1cc(-c2nc(-c3ccc([C@H](C)N[C@H](C)C(=O)O)cc3)no2)ccc1-c1ccccc1C [Example 3, hydrochloride salt]          2e-09
 8  Cc1ccccc1-c1ccc(-c2nc(-c3ccc(CNC(C)(C)C(=O)O)c(F)c3)no2)cc1C(F)(F)F [Example 49, hydrochloride salt]       1.06e-09
 9  Cc1ccccc1-c1ccc(-c2nc(-c3ccc(CN(C)C4(C(=O)O)CCCC4)cc3)no2)cc1C(F)(F)F [Example 73]       2.27e-09
10  Cc1ccccc1-c1ccc(-c2nc(-c3ccc(CN[C@H](C)C(=O)O)cc3)no2)cc1C(F)(F)F [Example 68]       2.47e-09
11  Cc1ccccc1-c1ccc(-c2nc(-c3cccc(CCN[C@H](C(=O)O)C(C)C)c3)no2)cc1C(F)(F)F [Example 96]       5.33e-10

Reference source: patent US9029405B2
